For each record, write down the corresponding % remaining (60 min).
Assay: stability test in liver microsomes (monkey)
Assay type: in vitro ADME
Settings: Monkey liver microsomes, 60 min
Answers are plain numbers, in %.

Here is how some compounds turned out for % remaining (60 min).
Cc1cc(C[C@@H](NC(=O)N2CCC(c3cc4c([nH]c3=O)SCC4)CC2)C(=O)N2CCN(C3CCN(C)CC3)CC2)cc2cn[nH]c12 [Example 8]    61.6
Cc1cc(C[C@@H](NC(=O)N2CCC(c3cc4c([nH]c3=O)SCCC4)CC2)C(=O)N2CCN(C3CCN(C)CC3)CC2)cc2cn[nH]c12 [Example 6]    96.9
Cc1cc(C[C@@H](NC(=O)N2CCC(c3cc4ccccc4[nH]c3=O)CC2)C(=O)N2CCN(C3CCN(C)CC3)CC2)cc2cn[nH]c12 [Zavegepant, zavegepant, reference compound]    72.1

Now for a further compound.
-- ask State the recorded % remaining (60 min) for this entry: [2H]C([2H])([2H])N1CCC(N2CCN(C(=O)[C@@H](Cc3cc(C)c4[nH]ncc4c3)NC(=O)N3CCC(c4cc5c([nH]c4=O)SCC5)CC3)CC2)CC1 [Example 29]
-- reply 98.9
